Would you mind telling me the reported pIC50 of each entry?
Test system: IL-1β, human peripheral blood mononuclear cells (PBMC)
Assay: PBMC cell assay: IL-1β assay with human PBMC or enriched adherent mononuclear cells, LPS-stimulated
Format: cell-based
Conditions: Homo sapiens, PBMC, * = values obtained upon reassay
The quantity pIC50 is defined as the negative base-10 logarithm of the molar concentration.

Incoming: Can you look up the measured pIC50 of O=C[C@H](CC(=O)O)NC(=O)[C@@H]1CCCN2C(=O)CC[C@H](NC(=O)c3ccc(NC(=O)Cc4ccccc4)cc3)C(=O)N12 [Compound 486] for me?
Outgoing: 6.32

Incoming: Next compound up: Cc1ccc(Cl)cc1C(=O)N[C@H]1CCC(=O)N2CCC[C@@H](C(=O)N[C@H](C=O)CC(=O)O)N2C1=O [Compound 466]
Outgoing: 5.85

Incoming: Next compound up: O=C[C@H](CC(=O)O)NC(=O)[C@@H]1CCCN2C(=O)CC[C@H](NC(=O)c3ccccc3)C(=O)N12 [Compound 214e]
Outgoing: 5.80

Incoming: Next compound up: CS(=O)(=O)Nc1ccc(C(=O)N[C@H]2CCC(=O)N3CCC[C@@H](C(=O)N[C@H](C=O)CC(=O)O)N3C2=O)cc1 [Compound 447]
Outgoing: 5.60

Incoming: Next compound up: CNC(=O)N[C@H]1CCC(=O)N2CCC[C@@H](C(=O)N[C@H](C=O)CC(=O)O)N2C1=O [Compound 420]
Outgoing: 5.10

Incoming: Next compound up: C[C@H]1CC(=O)N2CCC[C@@H](C(=O)N[C@H](C=O)CC(=O)O)N2C(=O)[C@H]1NC(=O)c1ccccc1 [Compound 257]
Outgoing: 4.96

Incoming: Next compound up: COC(=O)Nc1ccc(C(=O)N[C@H]2CCC(=O)N3CCC[C@@H](C(=O)N[C@H](C=O)CC(=O)O)N3C2=O)cc1 [Compound 490]
Outgoing: 6.00

Incoming: Next compound up: O=C[C@H](CC(=O)O)NC(=O)[C@@H]1CCCN2C(=O)CC[C@H](NC(=O)OCc3ccccc3)C(=O)N12 [Compound 496]
Outgoing: 5.81

Incoming: Next compound up: COc1ccccc1C(=O)N[C@H]1CCC(=O)N2CCC[C@@H](C(=O)N[C@H](C=O)CC(=O)O)N2C1=O [Compound 405]
Outgoing: 5.77

Incoming: Next compound up: CCS(=O)(=O)N[C@H]1CCC(=O)N2CCC[C@@H](C(=O)N[C@H](C=O)CC(=O)O)N2C1=O [Compound 421]
Outgoing: 5.37

Incoming: Next compound up: CC(=O)N[C@H]1CCC(=O)N2CCC[C@@H](C(=O)N[C@@H](CC(=O)O)C(=O)COC(=O)c3c(Cl)cccc3Cl)N2C1=O [Compound 217c]
Outgoing: 5.77

Incoming: Next compound up: CC(=O)Nc1ccc(C(=O)N[C@H]2CN(C(C)=O)c3ccccc3N(CC(=O)N[C@H](C=O)CC(=O)O)C2=O)cc1 [Compound 627]
Outgoing: 5.49

###

Target: ICE (Homo sapiens)
Sequence (P29466 120-297 limits assumed): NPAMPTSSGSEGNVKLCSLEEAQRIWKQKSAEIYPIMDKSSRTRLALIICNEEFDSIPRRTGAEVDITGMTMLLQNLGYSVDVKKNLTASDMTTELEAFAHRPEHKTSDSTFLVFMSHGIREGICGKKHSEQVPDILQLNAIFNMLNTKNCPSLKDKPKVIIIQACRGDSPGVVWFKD
Sequence (P29466 317-404 limits assumed): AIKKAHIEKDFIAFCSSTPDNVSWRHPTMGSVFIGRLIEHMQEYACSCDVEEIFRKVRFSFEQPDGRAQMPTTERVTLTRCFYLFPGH
Assay: Enzyme assay with UV-visible substrate (visible ICE assay, Succinyl-Tyr-Val-Ala-Asp-pNitroanilide)
Format: biochemical
Details: Table 5
measured_parameter: pKi
The quantity pKi is defined as the negative base-10 logarithm of the molar concentration.

Incoming: Can you look up the measured pKi of O=C[C@H](CC(=O)O)NC(=O)[C@@H]1CCCN2C(=O)CC[C@H](NC(=O)C3CC3)C(=O)N12 [Compound 413] for me?
Outgoing: 6.12

Incoming: Next compound up: O=C[C@H](CC(=O)O)NC(=O)[C@@H]1CCCN2C(=O)CC[C@H](NC(=O)c3cc4ccccc4s3)C(=O)N12 [Compound 453]
Outgoing: 9.19

Incoming: Next compound up: CS(=O)(=O)Nc1ccc(C(=O)N[C@H]2CCC(=O)N3CCC[C@@H](C(=O)N[C@H](C=O)CC(=O)O)N3C2=O)cc1 [Compound 447]
Outgoing: 8.24

Incoming: Next compound up: CN(C)S(=O)(=O)N[C@H]1CCC(=O)N2CCC[C@@H](C(=O)N[C@H](C=O)CC(=O)O)N2C1=O [Compound 428]
Outgoing: 6.55
